The reported measurements were obtained from patent US20100041665A1.

measured_target: Recombinant human glycogen synthase kinase 3 beta (Homo sapiens)
Sequence (P49841 whole entry): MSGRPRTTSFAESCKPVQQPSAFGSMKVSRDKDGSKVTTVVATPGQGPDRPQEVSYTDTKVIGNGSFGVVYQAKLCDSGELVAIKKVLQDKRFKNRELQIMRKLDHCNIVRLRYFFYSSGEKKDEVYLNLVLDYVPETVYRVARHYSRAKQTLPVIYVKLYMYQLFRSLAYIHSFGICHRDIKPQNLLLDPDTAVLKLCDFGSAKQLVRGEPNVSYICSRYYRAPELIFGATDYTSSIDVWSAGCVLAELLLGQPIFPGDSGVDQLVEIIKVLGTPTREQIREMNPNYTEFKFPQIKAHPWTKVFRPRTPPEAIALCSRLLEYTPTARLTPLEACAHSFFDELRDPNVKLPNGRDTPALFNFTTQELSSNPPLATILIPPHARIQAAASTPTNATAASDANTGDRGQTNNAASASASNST
measurement_description: GSK-3 beta inhibition assay
Format: biochemical
condition_info: 0.5 h, compound at 25 μM; percentage of enzyme activity
assay_endpoint: remaining activity at 25 µM (%)
Reply with just the number (in %).

Known remaining activity at 25 µM results, listed for orientation:
>>> assay_result("COC(=O)c1ccc(OC)c(N(CC=C(C)CCC=C(C)CCC=C(C)C)C(=O)OC(C)(C)C)c1")
27.9
>>> assay_result("CC(C)=CCCC(C)=CCNc1cccc(C(=O)O)c1")
55.5
>>> assay_result("CC(C)=CCC/C(C)=C/CC/C(C)=C/CN(C/C=C(\\C)CC/C=C(\\C)CCC=C(C)C)c1cccc(C(=O)O)c1")
37.4

Task: Retrieve remaining activity at 25 µM measured for "COc1ccc(C(=O)NCCc2c[nH]cn2)cc1N(C/C=C(\C)CCC=C(C)C)C/C=C(\C)CCC=C(C)C" and print it.
Output: 27.9

Task: Retrieve remaining activity at 25 µM measured for "COCOc1ccc(C(=O)OC)cc1NC/C=C(\C)CC/C=C(\C)CCC=C(C)C" and print it.
Output: 61.8

Task: Retrieve remaining activity at 25 µM measured for "COc1ccc(C(=O)/N=C(\N)NCCCO)cc1N(C/C=C(\C)CCC=C(C)C)C/C=C(\C)CCC=C(C)C" and print it.
Output: 125

Task: Retrieve remaining activity at 25 µM measured for "COc1ccccc1N(C/C=C(\C)CCC=C(C)C)C/C=C(\C)CCC=C(C)C" and print it.
Output: 90.7

Task: Retrieve remaining activity at 25 µM measured for "COC(=O)c1ccc(OC)c(NCC=C(C)CCC=C(C)CCC=C(C)CCC=C(C)C)c1" and print it.
Output: 34.7
